Where these numbers come from: PubChem BioAssay AID1159580

- TEST DESCRIPTION: chemical genetic growth profiling, strain panel (AID 1159580);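 note: tested at 20 µM; growth read once vehicle control cultures reached saturation at 30 °C; 1 = growth at the plate median or of vehicle wells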
- RUN CONDITIONS: S. cerevisiae deletion strains, growth OD, locus YKR001C, strain vps1, stronger effect = lower value
Screen size: about 5,500 compounds; about 2,000 (36%) were called active. About 18% were inconclusive and are not listed. The list shows a part of the results.
PROPERTY MEASURED: normalized growth
A bare number is all that is needed in reply.

Here's what some known entries look like.
MOLECULE | normalized growth
NC(=O)N/N=C\c1ccc([N+](=O)[O-])o1 | 0.95
CCCN(CCC)C(=O)C(CCC(=O)O)NC(=O)c1ccccc1 (configuration not stated) | 0.995
O=C(O)CCC(=O)c1ccc(-c2ccccc2)cc1 | 0.92

Next:
Entry CC12CCCC(O)(C1)C1CC(C)(C)C1CC2 (configuration not stated) , normalized growth reported as 1.02

----------
- TEST DESCRIPTION: chemical genetic growth profiling, strain panel (AID 1159580)
- RUN CONDITIONS: S. cerevisiae deletion strains, growth OD, locus YLR085C, strain ARP6, stronger effect = lower value
In all, about 5,500 compounds went through this assay and about 2,000 (36%) were called active. About 18% were inconclusive and are not listed. The list shows a part of the results.
PROPERTY MEASURED: normalized growth

Here's what some known entries look like.
COMPOUND | normalized growth
CC(C)(C)OC(=O)N1CCN(Cc2ccccc2)CC1 | 0.997 (inactive)
O=S(=O)(c1cc(Br)c(Br)s1)N1CCCCC1 | 1.02 (inactive)
COc1ccc(CN(Cc2ccc(OC)cc2)C(=O)c2cccs2)cc1 | 0.97 (inactive)
COC(=O)c1ccc(-c2ccccc2F)cc1 | 0.696 (active)
CC/C(=N/Oc1ccc(C(F)(F)F)cn1)c1ccc(-c2ccccc2F)cc1 | 1.04 (inactive)
O=C(Nc1cc(C(F)(F)F)cc(C(F)(F)F)c1)C(Sc1ccccn1)c1ccccc1 (stereo unspecified) | 1.02 (inactive)

Entry CCCCCCCC1CC/C(=C\c2ccc(/C=C3\CCC(CCCCCCC)C3=O)cc2)C1=O (stereo unspecified) , normalized growth reported as 1.02 (inactive)

Entry Cc1ccc(-n2nc(-c3ccc(OC(F)(F)F)cc3)cc2NC(=O)Nc2ccc(OC(F)(F)F)cc2)cc1C , normalized growth reported as 1.17 (inactive)

Entry O=C1c2cccc3c(SCCO)ccc(c23)C(=O)N1CCc1ccccn1 , normalized growth reported as 0.948 (inactive)

Entry CC(C)(C)c1nc(N)sc1Br , normalized growth reported as 0.985 (inactive)

Entry ON(Cc1c(F)cccc1Cl)Cc1c(F)cccc1Cl , normalized growth reported as 0.987 (inactive)

----------
# Lookup of reported normalized growth keyed by entry
- TEST DESCRIPTION: chemical genetic growth profiling, strain panel (AID 1159580)
- RUN CONDITIONS: S. cerevisiae deletion strains, growth OD, locus YIL125W, strain kgd1, stronger effect = lower value
Hit rate of the full screen: of about 5,500 compounds, about 2,000 (36%) were called active. Not shown: some 18% with an inconclusive outcome. This is one part of the list.
A bare number is all that is needed in reply.

Here's what some known entries look like.
COMPOUND | normalized growth
Nc1nc2c(c(=O)[nH]1)N(C=O)C(CNc1ccc(C(=O)N[C@@H](CCC(=O)O)C(=O)O)cc1)CN2 (some centres undefined) | 0.989
Oc1ccc(/C=C/c2cc(O)cc(O)c2)cc1 | 0.952

Entry CCC(CCC(C)C1CCC2C3CC=C4C[C@@H](OC(C)=O)CC[C@]4(C)C3CC[C@]12C)C(C)C (some centres undefined) , normalized growth reported as 0.987

Entry C[C@H](COc1ccccc1)N[C@H](C)[C@H](O)c1ccc(O)cc1 , normalized growth reported as 1

Entry CC(Cc1ccc(O)c(O)c1)(NN)C(=O)O (centres undefined) , normalized growth reported as 1

Entry Oc1cc(O)cc(/C=C/c2ccccc2)c1 , normalized growth reported as 1.01

Entry CN(Cc1cnc2nc(N)nc(N)c2n1)c1ccc(C(=O)NC(CCC(=O)O)C(=O)O)cc1 (centres undefined) , normalized growth reported as 0.278

Entry O=C(O)CCCCCCCCCCCCC1C=CCC1 (centres undefined) , normalized growth reported as 0.99

Entry Nc1nc2ncc(CNc3ccc(C(=O)N[C@@H](CCC(=O)O)C(=O)O)cc3)nc2c(=O)[nH]1 , normalized growth reported as 0.94

Entry c1cc2c(cc1[C@H]1OC[C@H]3[C@@H]1CO[C@H]3c1ccc3c(c1)OCO3)OCO2 , normalized growth reported as 0.889

----------
- TEST DESCRIPTION: chemical genetic growth profiling, strain panel (AID 1159580)
- RUN CONDITIONS: S. cerevisiae deletion strains, growth OD, locus YEL061C, strain CIN8, stronger effect = lower value
The whole screen tested about 5,500 compounds, of which about 2,000 (36%) were called active. About 18% were inconclusive and are not listed. The list shows a part of the results.
Labelling field: enter T if recorded normalized growth is less than 1. Enter F if it equals or exceeds that cut-off.

SMILES | GROUP
C/C(=N/OC(=O)c1ccc(Cl)cc1)c1ccc(F)cc1 | T

q: Problem: For the compound O=C(O)c1cc(O)c(O)c(O)c1 , is normalized growth under 1?
a: F

----------
- TEST DESCRIPTION: chemical genetic growth profiling, strain panel (AID 1159580);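 note: tested at 20 µM; growth read once vehicle control cultures reached saturation at 30 °C; 1 = growth at the plate median or of vehicle wells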
- RUN CONDITIONS: S. cerevisiae deletion strains, growth OD, locus YPL241C, strain CIN2, stronger effect = lower value
Screen size: about 5,500 compounds; about 2,000 (36%) were called active. Roughly 18% stayed inconclusive and do not appear here. The list shows a part of the results.
Labelling field: enter 1.0 if recorded normalized growth is less than 1. Enter 0.0 if it equals or exceeds that cut-off.

Answered examples (3):
COMPOUND | GROUP
O=C(O)CC(CC(=O)O)c1ccc(C(F)(F)F)cc1 | 0.0
COC(=O)c1ccc(C(=O)OC)nc1 | 1.0
O=C(O)CCNC(=S)Nc1cccc(C(F)(F)F)c1 | 1.0

q: Problem: For the compound C/C(=N/OC(=O)c1ccc(Cl)cc1)c1ccc(F)cc1 , is normalized growth under 1?
a: 1.0

q: Problem: For the compound C/C(=N/NC1=NCCN1)c1ccc(F)cc1 , is normalized growth under 1?
a: 0.0

q: Problem: For the compound C=CCc1cc(OC)c2c(c1OC)OCO2 , is normalized growth under 1?
a: 1.0

q: Problem: For the compound CO[C@@H]1C[C@@H](C[C@H]2CC[C@H](C)[C@H]([C@@H](C)C(=O)O)O2)O[C@]2(O[C@](C)([C@H]3CC[C@@](C)(C4O[C@@H](C5O[C@@](O)(CO)[C@H](C)C[C@@H]5C)C[C@@H]4C)O3)C[C@H]2C)[C@@H]1C (some centres undefined) , is normalized growth under 1?
a: 0.0

q: Problem: For the compound Cc1ccc(-n2nc(-c3ccc(OC(F)(F)F)cc3)cc2NC(=O)Nc2ccc(OC(F)(F)F)cc2)cc1C , is normalized growth under 1?
a: 0.0

q: Problem: For the compound CC1(C)CCC(C(C)(C)O)CC1 , is normalized growth under 1?
a: 0.0

q: Problem: For the compound COc1nc(N)nc(SC)n1 , is normalized growth under 1?
a: 0.0

----------
- TEST DESCRIPTION: chemical genetic growth profiling, strain panel (AID 1159580);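 note: tested at 20 µM; growth read once vehicle control cultures reached saturation at 30 °C; 1 = growth at the plate median or of vehicle wells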
- RUN CONDITIONS: S. cerevisiae deletion strains, growth OD, locus YBR023C, strain chs3, stronger effect = lower value
About 2,000 (36%) of roughly 5,500 compounds were called active. About 18% were inconclusive and are not listed. The list shows a part of the results.
# Lookup of reported normalized growth keyed by entry
A bare number is all that is needed in reply.

MOLECULE | normalized growth
Nc1nccs1 | 0.991

Entry O=C1CN(/N=C\c2ccc([N+](=O)[O-])o2)C(=O)N1 , normalized growth reported as 0.982

Entry O=C1OCCN1/N=C\c1ccc([N+](=O)[O-])o1 , normalized growth reported as 1

Entry O=C1N=C(O)CN1/N=C\c1ccc(-c2ccc([N+](=O)[O-])cc2)o1 , normalized growth reported as 0.998

Entry Nc1ccc(S(=O)(=O)Nc2nccs2)cc1 , normalized growth reported as 1.03

Entry NC(=O)c1cc[n+](CC2=C(C(=O)O)N3C(=O)C(NC(=O)C(c4ccccc4)S(=O)(=O)[O-])C3SC2)cc1 (stereo unspecified) , normalized growth reported as 0.997

----------
- TEST DESCRIPTION: chemical genetic growth profiling, strain panel (AID 1159580);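 note: tested at 20 µM; growth read once vehicle control cultures reached saturation at 30 °C; 1 = growth at the plate median or of vehicle wells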
- RUN CONDITIONS: S. cerevisiae deletion strains, growth OD, locus YLL001W, strain dnm1, stronger effect = lower value
The campaign covered roughly 5,500 compounds. About 2,000 (36%) were called active. Not shown: some 18% with an inconclusive outcome. This is one part of the list.
PROPERTY MEASURED: normalized growth
A bare number is all that is needed in reply.

COMPOUND | normalized growth
CCC(COC(=O)c1cc(OC)c(OC)c(OC)c1)(c1ccccc1)N(C)C (stereo not drawn) | 0.985
CC(Cc1ccc(O)c(O)c1)(NN)C(=O)O (stereo not drawn) | 1.01
CC12CCCC(O)(C1)C1CC(C)(C)C1CC2 (stereo not drawn) | 0.925
CN1CCc2cccc3c2C1Cc1ccc(O)c(O)c1-3 (stereo not drawn) | 0.967
O=C(O)c1ccc2c(c1)OCO2 | 1.01
CCOC(=O)C(C)(N)Cc1ccc(O)c(O)c1 (stereo not drawn) | 0.974
CC1(C)CC2C1CCC1(C)OC1CCC2(C)O (stereo not drawn) | 1.01

Next:
Entry OC1CCCCC1N1CCC(c2ccccc2)CC1 (stereo not drawn) , normalized growth reported as 0.981
